Reference for the values: patent US12534469B2

- target.or.system: IRAK1 (Homo sapiens, UniProt P51617)
- Sequence (P51617 whole entry): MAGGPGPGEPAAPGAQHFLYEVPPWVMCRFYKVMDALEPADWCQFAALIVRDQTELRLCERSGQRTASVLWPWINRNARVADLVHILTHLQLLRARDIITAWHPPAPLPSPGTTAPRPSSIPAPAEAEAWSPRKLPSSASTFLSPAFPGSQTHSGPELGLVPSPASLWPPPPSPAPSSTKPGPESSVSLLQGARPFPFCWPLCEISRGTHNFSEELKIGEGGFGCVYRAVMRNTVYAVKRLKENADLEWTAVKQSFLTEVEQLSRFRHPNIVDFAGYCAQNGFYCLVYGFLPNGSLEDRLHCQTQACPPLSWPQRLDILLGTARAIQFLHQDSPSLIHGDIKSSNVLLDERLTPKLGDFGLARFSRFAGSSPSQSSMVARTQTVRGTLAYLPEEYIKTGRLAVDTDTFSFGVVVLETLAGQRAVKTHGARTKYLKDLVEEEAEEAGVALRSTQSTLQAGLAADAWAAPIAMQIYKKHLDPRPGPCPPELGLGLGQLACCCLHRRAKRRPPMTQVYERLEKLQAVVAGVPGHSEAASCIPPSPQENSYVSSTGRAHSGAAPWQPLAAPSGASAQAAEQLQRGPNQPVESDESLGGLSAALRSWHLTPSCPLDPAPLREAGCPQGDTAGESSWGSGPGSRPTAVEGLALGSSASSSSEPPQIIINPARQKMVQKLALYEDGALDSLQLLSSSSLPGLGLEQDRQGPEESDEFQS
endpoint.label: IC50 (nM)

Below are worked cases with known answers.
- molecule: "COc1cc2ncc(-c3cc(F)cc(N[C@H]4CNCC[C@@H]4F)n3)n2nc1C1CC1"
  value.units: "nM"
  IC50: 272
- molecule: "c1cc(NC2CC3(CNC3)C2)nc(-c2cnc3ccc(-c4cn[nH]c4)nn23)c1"
  value.units: "nM"
  IC50: 49
- molecule: "FC(F)(F)[C@H]1CNC[C@@H]1Nc1cccc(-c2cnc3ccc(-c4cnn(C5CC5)c4)nn23)n1"
  value.units: "nM"
  IC50: 1840

A = O[C@H]1CNC[C@@H]1Nc1cccc(-c2cnc3ccc(C4CC4)nn23)n1
B = FC(F)(F)[C@H]1CNC[C@@H]1Nc1cccc(-c2cnc3ccc(C4CC4)nn23)n1
### Prompt Please tell me which of the two, A or B , has the higher reported IC50 value. Mark your answer with the label of the selected entry.
### Response A
(A: 5190 nM, B: 2650 nM)

P = Cn1cc(-c2ccc3ncc(-c4cccc(NC5CC6(CCNC6)C5)n4)n3n2)cn1 (stereo not shown)
Q = CC(C)n1cc(-c2ccc3ncc(-c4cccc(NC5CC6(CNC6)C5)n4)n3n2)cn1
### Prompt Please tell me which of the two, P or Q , has the higher reported IC50 value. Mark your answer with the label of the selected entry.
### Response Q
(Q: 3410 nM, P: 2220 nM)

I = Cn1cc(-c2ccc3ncc(-c4cccc(NC5CCNC5)n4)n3n2)cn1 (stereo not shown)
II = CC(C)Oc1cnn2c(-c3cccc(N[C@H]4CNC[C@@H]4F)n3)cnc2c1
III = Cc1oncc1-c1ccc2ncc(-c3cccc(NC4CCC5(CNC5)C4)n3)n2n1 (stereo not shown)
IV = COc1cc2ncc(-c3nc(N[C@@H]4CCCNC4)c(F)cc3F)n2nc1C(C)(C)O
### Prompt Endpoint returns the given molecules ordered by ascending IC50. List the labels according to the requested ordering.
### Response IV, I, III, II
(IV: 146 nM, I: 565 nM, III: 1060 nM, II: 3190 nM)

1 = COc1cc2ncc(-c3cccc(N[C@H]4CNCC[C@@H]4F)n3)n2nc1-c1cnn(C)c1
2 = F[C@H]1CNC[C@@H]1Nc1cccc(-c2cnc3ccc(C4CC4)nn23)n1
3 = FC(F)n1cc(-c2ccc3ncc(-c4cccc(N[C@H]5CNC[C@@H]5F)n4)n3n2)cn1
### Prompt Endpoint returns the given molecules ordered by ascending IC50. List the labels according to the requested ordering.
### Response 1, 3, 2

P = CC(C)(O)Cn1cc(-c2ccc3ncc(-c4cccc(N[C@H]5CCNC[C@@H]5F)n4)n3n2)cn1
Q = COc1cc2ncc(-c3cccc(N[C@H]4CNC[C@@H]4F)n3)n2nc1C1CC1
R = COc1cc2ncc(-c3cccc(N[C@H]4CNCC[C@@H]4F)n3)n2nc1C(C)(O)C(F)(F)F (single isomer, unassigned; fast-eluting)
### Prompt Parameters: sort_field (IC50), sort_dir (desc). List the labels according to the requested ordering.
### Response R, P, Q

P = COc1cc2ncc(-c3cccc(N[C@@H]4CCCNC4)n3)n2nc1C1(C(F)(F)F)CC1
Q = F[C@H]1CNC[C@@H]1Nc1cccc(-c2cnc3cc(C4CC4)cnn23)n1
### Prompt Smaller IC50 value, P vs Q ? Mark your answer with the label of the selected entry.
### Response P
(P: 536 nM, Q: 774 nM)

1 = COc1cc2ncc(-c3cccc(N[C@H]4CNC[C@@H]4F)n3)n2nc1C1(C(F)(F)F)CC1
2 = c1cc(N[C@@H]2CCCNC2)nc(-c2cnc3ccc(-c4cnn(C5CC5)c4)nn23)c1
### Prompt Please tell me which of the two, 1 or 2 , has the higher reported IC50 value. Mark your answer with the label of the selected entry.
### Response 2
(2: 1820 nM, 1: 595 nM)

1 = Cn1cc(-c2ccc3ncc(-c4cccc(N[C@H]5CCNC[C@@H]5F)n4)n3n2)cn1
2 = COc1ccc2ncc(-c3cccc(N[C@H]4CNC[C@@H]4F)n3)n2n1
### Prompt Smaller IC50 value, 1 vs 2 ? Mark your answer with the label of the selected entry.
### Response 1
(1: 266 nM, 2: 1650 nM)
